Target of assay: UniProt P08183
Method description: Inhibition of ABCB1 in human KBV1 cells assessed as inhibition of calcein-AM efflux
Assay type: cell-based
Assay setup: read-out: IC50
Experimental readout: IC50 (µM)

(1) COc1cc(OC)c2c(=O)cc(N3CCN(Cc4ccc(C(F)(F)F)cc4)CC3)oc2c1
(2) COc1cc(OC)c2c(=O)cc(C(=O)N3CCN(Cc4ccc([N+](=O)[O-])cc4)CC3)oc2c1
(3) O=C(NCCCN1CCOCC1)c1cnn2c(-c3ccccc3)cc(-c3ccccc3)nc12
sort_by: IC50; order: ascending; scope: items listed above # respond with the labels, arranged in the requested order
3, 1, 2
(3: 6.8 µM, 1: 31.3 µM, 2: 58.2 µM)

###

Target of assay: Broad substrate specificity ATP-binding cassette transporter ABCG2 (Homo sapiens, UniProt Q9UNQ0)
Sequence (Q9UNQ0 whole entry): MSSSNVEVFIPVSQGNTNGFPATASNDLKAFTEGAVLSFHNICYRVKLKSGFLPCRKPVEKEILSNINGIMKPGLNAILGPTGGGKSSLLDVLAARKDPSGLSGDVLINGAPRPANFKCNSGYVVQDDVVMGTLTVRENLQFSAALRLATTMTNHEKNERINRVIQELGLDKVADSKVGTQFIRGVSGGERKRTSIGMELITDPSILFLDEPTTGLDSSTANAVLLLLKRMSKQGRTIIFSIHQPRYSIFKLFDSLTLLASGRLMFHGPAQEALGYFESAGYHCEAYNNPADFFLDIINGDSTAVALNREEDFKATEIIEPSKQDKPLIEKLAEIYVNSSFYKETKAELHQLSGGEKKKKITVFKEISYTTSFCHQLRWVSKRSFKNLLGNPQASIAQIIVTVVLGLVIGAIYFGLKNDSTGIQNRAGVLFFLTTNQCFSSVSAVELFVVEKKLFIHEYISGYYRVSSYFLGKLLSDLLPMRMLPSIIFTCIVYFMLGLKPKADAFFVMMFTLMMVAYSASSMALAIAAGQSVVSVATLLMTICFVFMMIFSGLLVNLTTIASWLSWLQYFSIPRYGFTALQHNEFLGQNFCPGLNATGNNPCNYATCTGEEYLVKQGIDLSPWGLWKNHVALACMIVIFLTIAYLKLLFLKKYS
Method description: Inhibition of ABCG2 in human MCF7/Topo cells by Hoechst 33342 assay
Assay type: cell-based
Assay setup: read-out: IC50
Experimental readout: IC50

Chem smiles | Experimental readout | Observed value
COc1cc(OC)c2c(=O)cc(NCCc3ccc(OC)c(OC)c3)oc2c1 | IC50 | > 100 µM
COc1cc(OC)c2c(=O)cc(N3CCN(Cc4ccc(S(=O)(=O)C(F)(F)F)cc4)CC3)oc2c1 | IC50 | > 100 µM

Kindly consider the entry below.
Suppose we examine the compound `COC(=O)c1ccc(CN2CCN(c3cc(=O)c4c(OC)cc(OC)cc4o3)CC2)cc1` ; what IC50 value has been reported?
> 100 µM

###

Target of assay: ABCB1 (P-glycoprotein) (Homo sapiens, UniProt P08183)
Sequence (P08183 whole entry): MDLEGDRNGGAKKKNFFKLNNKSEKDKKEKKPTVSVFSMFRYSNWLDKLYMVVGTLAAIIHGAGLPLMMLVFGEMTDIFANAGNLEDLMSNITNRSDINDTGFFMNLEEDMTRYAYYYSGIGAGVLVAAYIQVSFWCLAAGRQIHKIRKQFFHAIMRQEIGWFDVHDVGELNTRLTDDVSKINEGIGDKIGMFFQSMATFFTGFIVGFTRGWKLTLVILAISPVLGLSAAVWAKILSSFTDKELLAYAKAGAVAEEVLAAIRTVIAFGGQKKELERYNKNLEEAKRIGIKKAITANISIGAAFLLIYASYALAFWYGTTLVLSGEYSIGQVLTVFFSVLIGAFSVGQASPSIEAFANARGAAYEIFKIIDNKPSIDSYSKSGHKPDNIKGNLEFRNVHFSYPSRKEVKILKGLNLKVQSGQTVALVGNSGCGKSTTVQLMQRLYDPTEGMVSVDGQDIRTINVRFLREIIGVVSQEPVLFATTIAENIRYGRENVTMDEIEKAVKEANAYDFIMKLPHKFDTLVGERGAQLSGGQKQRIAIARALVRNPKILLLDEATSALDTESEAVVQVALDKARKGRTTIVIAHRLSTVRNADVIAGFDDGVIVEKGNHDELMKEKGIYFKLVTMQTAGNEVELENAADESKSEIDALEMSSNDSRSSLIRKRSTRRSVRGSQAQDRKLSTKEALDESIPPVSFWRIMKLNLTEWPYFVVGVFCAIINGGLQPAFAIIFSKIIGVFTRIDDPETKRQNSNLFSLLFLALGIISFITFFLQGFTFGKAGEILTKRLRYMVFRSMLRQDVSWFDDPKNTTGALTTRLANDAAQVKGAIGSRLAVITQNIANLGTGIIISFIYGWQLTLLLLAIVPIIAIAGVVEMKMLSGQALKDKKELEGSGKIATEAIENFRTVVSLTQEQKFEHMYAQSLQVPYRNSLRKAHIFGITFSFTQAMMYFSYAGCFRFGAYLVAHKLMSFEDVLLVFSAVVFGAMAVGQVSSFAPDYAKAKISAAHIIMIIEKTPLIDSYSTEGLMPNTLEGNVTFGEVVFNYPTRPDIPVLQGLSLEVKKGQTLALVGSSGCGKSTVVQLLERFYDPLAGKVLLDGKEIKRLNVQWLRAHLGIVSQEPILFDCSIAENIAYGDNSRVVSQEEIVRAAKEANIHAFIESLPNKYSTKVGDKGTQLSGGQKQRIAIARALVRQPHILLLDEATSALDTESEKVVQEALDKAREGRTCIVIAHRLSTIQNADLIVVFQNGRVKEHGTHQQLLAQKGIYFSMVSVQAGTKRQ
Method description: Inhibition of ABCB1 in human KBV1 cells assessed as inhibition of calcein-AM efflux at 1 uM relative to tariquidar
Assay type: cell-based
Assay setup: probe calcein-AM, read-out: Imax
Experimental readout: inhibition at 1 µM (%)

Chem smiles | Observed value
O=C(c1cc(=O)c2c(OCc3ccccc3)cccc2o1)N1CCN(Cc2ccccc2)CC1 | 34.3

(a) O=C(NCCCN1CCOCC1)c1cnn2c(-c3ccccc3)cc(-c3ccccc3)nc12
(b) COc1cc(OC)c2c(=O)cc(C(=O)N3CCN(Cc4ccc([N+](=O)[O-])cc4)CC3)oc2c1
Compare reported inhibition at 1 µM values for a and b . Which is lower? Respond with the label that goes with your answer.
b
(b: 33.4%, a: 143%)

(P) COc1cc(OC)c2c(=O)cc(N3CCN(Cc4cccc([N+](=O)[O-])c4)CC3)oc2c1
(Q) COc1cc(OC)c2c(=O)cc(N3CCN(CCc4ccc([N+](=O)[O-])cc4)CC3)oc2c1
Which has the higher inhibition at 1 µM, P or Q ? Record your answer as the label of the chosen record.
Q
